TARGET ENTITY: Prostaglandin G/H synthase 2 (Homo sapiens) (UniProt P35354)
Sequence (P35354 whole entry): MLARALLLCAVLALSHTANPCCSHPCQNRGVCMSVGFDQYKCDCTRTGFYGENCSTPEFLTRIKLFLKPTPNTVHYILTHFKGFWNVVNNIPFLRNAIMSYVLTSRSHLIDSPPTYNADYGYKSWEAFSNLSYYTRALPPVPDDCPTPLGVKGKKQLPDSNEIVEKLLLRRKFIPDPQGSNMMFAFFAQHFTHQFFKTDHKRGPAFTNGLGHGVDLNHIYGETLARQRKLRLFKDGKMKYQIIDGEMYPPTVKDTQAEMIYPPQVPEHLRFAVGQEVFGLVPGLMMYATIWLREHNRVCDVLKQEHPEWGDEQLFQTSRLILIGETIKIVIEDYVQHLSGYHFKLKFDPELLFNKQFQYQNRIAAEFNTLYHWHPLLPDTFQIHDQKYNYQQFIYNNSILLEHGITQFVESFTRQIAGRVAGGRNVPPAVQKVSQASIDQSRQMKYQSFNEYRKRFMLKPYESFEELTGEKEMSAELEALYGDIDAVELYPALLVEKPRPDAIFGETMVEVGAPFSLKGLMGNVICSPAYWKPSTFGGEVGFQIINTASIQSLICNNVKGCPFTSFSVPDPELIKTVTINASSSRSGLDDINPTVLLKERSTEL
EXPERIMENTAL SETUP: Sf9; at 10 µM
Description: In vitro inhibitory activity against human recombinant prostaglandin G/H synthase 2 (COX-2) at 10 uM expressed in sf-9 cells infected with baculovirus
VALUE TYPE: inhibition (%)

>  <SMILES RECORD>
Cc1cc(-c2ccc(NS(C)(=O)=O)cc2)n(-c2ccc(Br)cc2)n1

>  <inhibition / %>
100

$$$$
>  <SMILES RECORD>
Cc1cc(-c2ccc(NS(C)(=O)=O)cc2)n(-c2ccc(F)cc2)n1

>  <inhibition / %>
25

$$$$
>  <SMILES RECORD>
CC(=O)N(c1ccc(-c2cc(C(F)(F)F)nn2-c2ccc(Cl)cc2)cc1)S(C)(=O)=O

>  <inhibition / %>
63

$$$$
>  <SMILES RECORD>
CS(=O)(=O)Nc1ccc(-c2cc(C(F)(F)F)nn2-c2ccc(F)cc2)cc1

>  <inhibition / %>
65

$$$$
>  <SMILES RECORD>
CS(=O)(=O)Nc1ccc(-c2cc(C(F)(F)F)nn2-c2ccc(F)c(F)c2)cc1

>  <inhibition / %>
59

$$$$

P. CCC(=O)N(c1ccc(-c2cc(C(F)(F)F)nn2-c2ccc(Cl)cc2)cc1)S(C)(=O)=O
Q. CNc1ccc(-n2nc(C(F)(F)F)cc2-c2ccc(NS(C)(=O)=O)cc2)cc1
R. CS(=O)(=O)Nc1ccc(-c2cc(C(F)F)nn2-c2ccc(Cl)cc2)cc1
S. Cc1cc(-c2ccc(NS(C)(=O)=O)cc2)n(-c2ccc([N+](=O)[O-])cn2)n1
INPUT: Rank the 4 compounds: largest inhibition first, smallest last. Put the labels in the order asked and list them.
OUTPUT: R, P, Q, S
(R: 100%, P: 65%, Q: 42%, S: 13%)

====

TARGET ENTITY: Prostaglandin G/H synthase 2 (Homo sapiens) (UniProt P35354)
EXPERIMENTAL SETUP: Sf9; at 10 µM
VALUE TYPE: inhibition (%)

>  <SMILES RECORD>
CS(=O)(=O)Nc1ccc(-c2cc(C(F)(F)F)nn2-c2ccc(S(N)(=O)=O)cc2CO)cc1

>  <RESULT VALUE>
12

$$$$

I. Cc1ccc(S(=O)(=O)Nc2ccc(-c3cc(C(F)(F)F)nn3-c3ccc(Cl)cc3)cc2)cc1
II. CS(=O)(=O)N(c1ccc(-c2cc(C(F)(F)F)nn2-c2ccc(Cl)cc2)cc1)S(C)(=O)=O
INPUT: Please state the entry with greater inhibition among I and II . Answer by stating the label of the chosen item.
OUTPUT: I
(I: 70%, II: 13%)

====

TARGET ENTITY: Prostaglandin G/H synthase 2 (Homo sapiens) (UniProt P35354);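 further: in vitro assay on recombinant human COX-2 produced in baculovirus-infected Sf9 insect cells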
EXPERIMENTAL SETUP: Sf9; at 10 µM
VALUE TYPE: inhibition (%)

Past entries and their recorded results:
>  <SMILES RECORD>
CS(=O)(=O)Nc1ccc(-c2cc(C(F)F)nn2-c2ccccc2Cl)cc1

>  <inhibition (%)>
22

$$$$
>  <SMILES RECORD>
CC(=O)Nc1ccc(-c2cc(C(F)(F)F)nn2-c2ccc(Br)cc2)cc1

>  <inhibition (%)>
87

$$$$
>  <SMILES RECORD>
CCC(=O)N(c1ccc(-c2cc(C(F)F)nn2-c2ccc(Cl)cc2)cc1)S(C)(=O)=O

>  <inhibition (%)>
36

$$$$

a. CS(=O)(=O)Nc1ccc(-c2cc(C(F)F)nn2-c2ccc(Cl)c(Cl)c2)cc1
b. CS(=O)(=O)Nc1ccc(-c2cc(C(F)F)nn2-c2ccc(S(N)(=O)=O)cc2CO)cc1
c. CS(=O)(=O)Nc1ccc(-c2cc(C(F)F)nn2-c2ccc(F)c(F)c2)cc1
d. Cc1cc(-c2ccc(NS(C)(=O)=O)cc2)n(-c2ccccc2)n1
INPUT: Could you please order the items by inhibition, going from the lowest number to the highest? Ranked list of labels, please, in the requested order.
OUTPUT: b, d, c, a
(b: 0%, d: 7%, c: 36%, a: 71%)

A. CS(=O)(=O)Nc1ccc(-c2cc(C(F)(F)F)nn2-c2ccccc2F)cc1
B. CC(=O)Nc1ccc(-c2cc(C(F)(F)F)nn2-c2ccc(S(N)(=O)=O)cc2CO)cc1
INPUT: Min inhibition? A | B // output: label of the selected item
OUTPUT: B
(B: 0%, A: 89%)
